biological target: EBOV GPddmuc (Ebola virus (EBOV), UniProt Q05320 33-650); assay: ELISA
metricName: pEC50
Numbers only, as −log10 of the molar value.

binder | pEC50
FVM28 (antibody, V domains shown) VH: EVQLVQSGAEVKRPGESLKISCQTSGYRFTSSWISWVRQMPGKGLEWMGAIDPSDSETRYSPSFQGQVTISADKSISTAYLKWSSLKASDTATYYCVKGSETWGQGVLVTVSS VL: QAALTQPASLSASPGASASLTCTFSGGINVAGYHILWYQQKPGSPPRYLLRYKSDSEKDQGSGVPSRFSGSKDASANRGILRISGLQSEDEADYYCAIGHSSSGWVFGGGTRLTVL | 10.33

// switching to the query binder
Data request, read-out pEC50, for FVM39 (antibody, V domains shown) VH: EVQLVQSGAEVKRPGESLRISCKTSGYSFTDSWISWVRQMPGKGLEWLGSIYPGDSETKYNPSFQGHVTISADKSVTTTYLKWSSLKASDTATYYCVKGSETWGQGVLVTVSS VL: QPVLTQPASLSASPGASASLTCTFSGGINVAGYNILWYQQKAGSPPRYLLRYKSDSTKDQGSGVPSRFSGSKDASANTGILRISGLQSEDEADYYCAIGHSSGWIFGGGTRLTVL
10.57

Data origin: patent US20170334973A1
